Recorded remaining activity at 0.5 µM, one value per entry.
Molecular target: MAP3K7 (Homo sapiens, UniProt O43318)
Construct: purchased Research Biology Corp. (http://www.reactionbiology.com)
Sequence (O43318 1-303 limits assumed): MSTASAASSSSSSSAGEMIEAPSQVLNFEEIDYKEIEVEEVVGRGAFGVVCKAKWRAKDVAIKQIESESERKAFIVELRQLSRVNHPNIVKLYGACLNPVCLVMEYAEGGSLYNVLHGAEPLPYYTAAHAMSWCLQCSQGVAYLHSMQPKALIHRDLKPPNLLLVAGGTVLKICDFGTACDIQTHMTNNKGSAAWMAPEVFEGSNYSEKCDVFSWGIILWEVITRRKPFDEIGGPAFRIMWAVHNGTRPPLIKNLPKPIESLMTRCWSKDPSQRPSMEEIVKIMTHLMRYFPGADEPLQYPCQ
Assay: Kinase Profiler, residual kinase activity
Assay type: biochemical
Details: MAP3K7; inhibitor at 500 nM; read-out: percentage of the remaining kinase activity
Provide the reading as a plain figure in %.

**Q:** Which remaining activity at 0.5 µM value is on record for COC1C(N(C)C(=O)C(N)CCC(=O)OC(C)(C)C)CC2OC1(C)n1c3ccccc3c3c4c(c5c6ccccc6n2c5c31)C(=O)NC4 (stereo not shown) ?
**A:** 84.2
